k by entry:
system.tested: human amylin (hIAPP) (Homo sapiens, UniProt P10997)
Construct: purchased Bachem USA
test.summary: Kinetic analysis of amylin aggregation (ThT, two-step autocatalytic aggregation model)
Type: biochemical
details: ThT data, autocatalytic aggregation model, mean ± S.D.
The answer is to be given in h^–1; state only the numeric part.

CC(C)(C)c1cccc(CNCC(O)CCN2CCN(C(c3ccccc3)c3ccccc3)CC2)c1 (centres unmarked) = 0.2729
CC(C)(C)c1cccc(CNCC(O)CNCCC(c2ccccc2)c2ccccc2)c1 (centres unmarked) = 0.2087
CC(C)(C)c1cccc(CNCC(O)CNCC(c2ccccc2)c2ccccc2)c1 (centres unmarked) = 0.2687
CC(C)(C)c1cccc(CNCC(O)CCNCCC(c2ccccc2)c2ccccc2)c1 (centres unmarked) = 0.2326
CC(C)(C)c1cccc(CNCC(O)CCNCC(c2ccccc2)c2ccccc2)c1 (centres unmarked) = 0.2273

Request: Name the recorded k of OC(CNCCC(c1ccccc1)c1ccccc1)CNCc1ccccc1 (centres unmarked) , assay system human amylin (hIAPP) (Homo sapiens, UniProt P10997).
Response: 0.2996

Request: Specify the recorded k for C/C=C1/C(O)OC=C(C(=O)OC)[C@H]1CC(=O)OCCc1ccc(O)c(O)c1 (mixture of isomers) [Oleuropein aglycone, reference compound] , system: human amylin (hIAPP) (Homo sapiens, UniProt P10997).
Response: 0.2366

Request: // fetch k; item: CC(C)(C)c1cccc(CNCC(O)CN2CCN(C(c3ccccc3)c3ccccc3)CC2)c1 (centres unmarked) ; system: human amylin (hIAPP) (Homo sapiens, UniProt P10997)
Response: 0.2488

----------
As shown below, each of these compounds has a reported ρ (ratio of kn to k) value.
system.tested: human amylin (hIAPP) (Homo sapiens, UniProt P10997)
Construct: purchased Bachem USA
Sequence (P10997 34-70 limits assumed): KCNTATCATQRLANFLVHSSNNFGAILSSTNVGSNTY
test.summary: Kinetic analysis of amylin aggregation (ThT, two-step autocatalytic aggregation model)
Type: biochemical
details: ThT data, autocatalytic aggregation model, mean ± S.D.
Protocol: Kinetic analysis was performed according to the model of autocatalytic aggregation. […] Two constants (k n and k e) are calculated using the eq : 5 f=ρ{e^[(1+ρ)kt]−1}/{1+ρe^[(1+ρ)kt]} where k = k e a (where a represents the initial concentration of the aggregating peptide), f stands for a fraction of the fibrillar form in the system, and ρ denotes the dimensionless ratio of k n to k. The parameters k and ρ were calculated first, then k n and k e. […]

Some compounds with recorded ρ (ratio of kn to k):
CC(C)(C)c1cccc(CNCC(O)CNCCC(c2ccccc2)c2ccccc2)c1 (stereo not drawn) = 0.0186 ± 0.0051
CC(C)(C)c1cccc(CNCC(O)CNCC(c2ccccc2)c2ccccc2)c1 (stereo not drawn) = 0.0040 ± 0.0028
CC(C)(C)c1cccc(CNCC(O)CN2CCN(C(c3ccccc3)c3ccccc3)CC2)c1 (stereo not drawn) = 0.0159±0.0044
OC(CNCCC(c1ccccc1)c1ccccc1)CNCc1ccccc1 (stereo not drawn) = 0.0042 ± 0.0003
C/C=C1/C(O)OC=C(C(=O)OC)[C@H]1CC(=O)OCCc1ccc(O)c(O)c1 (mixture of isomers) [Oleuropein aglycone, reference compound] = 0.0093 ± 0.0002

Request: State its ρ (ratio of kn to k): CC(C)(C)c1cccc(CNCC(O)CCNCCC(c2ccccc2)c2ccccc2)c1 (stereo not drawn)
Response: 0.0624 ± 0.0126

----------
system.tested: human amylin (hIAPP) (Homo sapiens)
Construct: purchased Bachem USA
test.summary: Dynamic light scattering (DLS) assay of amylin aggregation
Format: biochemical
details: compound 10 μM, amylin 15 μM, 36 h incubation, 3 trials; read-out: DLS inhibition % (mean ± SEM)
property: inhibition at 10 µM (%)
Please reply with the bare figure in % and do not write the unit itself.

CC(C)(C)c1cccc(CNCC(O)CN2CCN(C(c3ccccc3)c3ccccc3)CC2)c1 (centres unmarked) = 30.3
COc1ccc(CNCC(O)CN2CCN(Cc3ccccc3)CC2)cc1 (centres unmarked) = 17.9
OC(CCN1CCN(C(c2ccccc2)c2ccccc2)CC1)CNCc1ccccc1 (centres unmarked) = 19
CCCC(C)N1CCN(CCC(O)CNCc2ccc(OC)cc2)CC1 (centres unmarked) = 20.1
OC(CCNCC(c1ccccc1)c1ccccc1)CNCc1ccccc1 (centres unmarked) = 27.5
COc1ccc(CNCC(O)CCN2CCN(Cc3ccccc3)CC2)cc1 (centres unmarked) = 27.8

Request: Determine its reported inhibition at 10 µM: CC(C)(C)c1cccc(CNCC(O)CCN2CCN(C(c3ccccc3)c3ccccc3)CC2)c1 (centres unmarked)
Response: 86.7

Request: Please indicate inhibition at 10 µM recorded for CC(C)(C)c1cccc(CNCC(O)CCNCCC(c2ccccc2)c2ccccc2)c1 (centres unmarked)
Response: 99.2

----------
Item-by-item account of inhibition at 10 µM
system.tested: human amylin (hIAPP) (Homo sapiens)
Construct: purchased Bachem USA
Sequence (P10997 34-70 limits assumed): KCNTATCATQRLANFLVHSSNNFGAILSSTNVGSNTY
test.summary: Dynamic light scattering (DLS) assay of amylin aggregation
Assay type: biochemical
details: compound 10 μM, amylin 15 μM, 36 h incubation, 3 trials; read-out: DLS inhibition % (mean ± SEM)
The reply should be a number in %, with the unit left off.

Consider the reported inhibition at 10 µM for these compounds:
CC(C)(C)c1cccc(CNCC(O)CNCCC(c2ccccc2)c2ccccc2)c1 (stereo not drawn) = 99.2
COc1ccc(CNCC(O)CCN2CCN(C(c3ccc(F)cc3)c3ccc(F)cc3)CC2)cc1 (stereo not drawn) = 7.8

# input for lookup
Request: Annotate the compound COc1ccc(CNCC(O)CCN2CCN(c3ccccc3)CC2)cc1 (stereo not drawn) with its measured inhibition at 10 µM.
Response: 10
